Tested on: MtvA (Pseudomonas aeruginosa PAD8 (plasmid pPAD8)), ORF:f8ca6192
Sequence: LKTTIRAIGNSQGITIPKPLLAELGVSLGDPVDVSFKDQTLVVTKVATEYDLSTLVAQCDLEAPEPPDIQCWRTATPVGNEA
Test: EMSA
Conditions: pH 8.0, 25 min at room temperature

{"columns": ["sequence string", "binding"],
 "data": [
  ["TTACTCGAGAAGTTTGGAATAACCAGAGATATGCTCGTCAACAACGAATGTTTGAACATATTTATCGGAACTTATTACATTCAGCGTAGCGTGCTGGGGAGTGATGATTTTTGGAAGGGCGTTGGTAATTACCACTCTCGCACGCCCGACAAAAACTACCGGTACAAACATCGTGTGTGGAACAGTCTCAAAGAAGTCCGGGGGCAGCAGGATCCATA (double strand) [P-icmP]", "binds"],
  ["TATGGATCCCGTATCTGCTCGGTTGGTTGATGGACAAAGCGCTTATCAAAAGGAAAACAACGCTTTGGCGCACGACTATACAGCAACGAAAGTCGAACGATAAGGCAATGATAGTCAGAAGTGACCCACCACTCAACACCAACCCACGCCCATATAGGTCTACGGTGACCTAAAACCTCGCTCGCCCTCCAAATAGGTCACCTGTGACCCTCGAGTAA (double strand) [P-dotD]", "binds"],
  ["TTACTCGAGTGATGGCGATCGCCGCCGACGATGCTTCGTTTGATCACAGCTGCGTGGTCAACTTCAAATCGGCCGCCTGAGGGCGGCCCTACCCATAGATCCTGATTCCTCAACAAGAAAAAGCGACGTGTCCATTCGTTGACACTAAAGGTATTTTTGCGTATTTTTCGACATTATCATCTAATGAAAGTCGTTGGGGTTTGTTCGGTGGATCCATA (double strand) [P-icmL]", "binds"]
]}

----------
Tested on: MtvA (Pseudomonas aeruginosa PAD8 (plasmid pPAD8)), ORF:f8ca6192
Sequence: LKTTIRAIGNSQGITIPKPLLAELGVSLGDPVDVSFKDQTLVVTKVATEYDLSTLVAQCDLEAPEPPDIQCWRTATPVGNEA
Assay: EMSA
Settings: pH 8.0, 25 min at room temperature
reported property: binding

{"columns": ["sequence string", "recorded result"],
 "data": [
  ["GTACGATCATCTTCACTTCCTCCAAATAGGAAGCTGAAGAATTTATGCAAATTTCATAATTTTATAACTAGCAAATGAGATAGATTTCGGTGAACCCGGACCCTTGCTAGGCTCGAAGAAACGTCCGAAAAGATCAGAGCA (double strand) [P-lasI]", "no binding"],
  ["GCCGTCTCCGCGCGGGAGGAAAAGGCCACAGCGATGTGGCTTTTTTCTTAAAAGAAAAGTCTCTCAGTGACAAAAGCGATGCATAGCCCGGTGCTAGCATGCGCTGAGCTTTAGGAGGCGCCCCC (double strand) [P-exsC]", "no binding"],
  ["GCTGGGAAGGCTCGCGATGATGAGGGGACTGGCCACTGTAGCGGGCCCGGCGCAGATCATCTTGACGCACGGCAAGCTCCCGGCGGCTGGGTGTTGCCGTCGGTCCGGCGAGCGGAACTATTACAGCGTGTAAGCCAAGGCTTACAAACGGCGGTGGTTTTGGCTGCTTTCTCCCCCTCGCAGAGATGCGTAATCTTCAAACCGTCAGGACATTGCGCAGG (double strand) [P-rsmY]", "binds"],
  ["CGGAAAACCTTAGACCCACTGAAGACCCGGCGTTCGCCGGGTTTTTTGTGTCTGCTCTTGTAAGCATTAACTTACACGGCGTGTGAGCCTAAGTAGATAAATGCCCGGGAGGTTTGCCAAAAACGCTCGGTGAATTTAAGTAACTTATTGAAATTAAAGGAATATATTTTTCTAAAATGGCTGCCGAAGAAGCTTCGCTGGGTTTTCTGGCAGGTTGCGGGAGCACTGGGAATCGCTAATATCACTCCTG (double strand) [P-rsmZ]", "binds"]
]}
